# assay_method_text: Test of hydrogen sulfide detection over time (^64CuS formation, radio-TLC)
# Assay type: physicochemical
# Parameters: unit not given here
# study_conditions: 100 μM NaHS, 37° C.; 10 sec
# Procedure: To examine reactivity of the ^64Cu-labeled complex compound according to the present disclosure over time, the following experiment was performed. A detailed experimental method is as follows. About 45 μCi-50 μCi of ^64Cu-labeled complex compound (250 μL of triple distilled water) was mixed with 100 μM of NaHS solution ([…] of triple distilled water), and stirred at 37° C. for 15 minutes. Formation of copper sulfide (^64CuS) was quantified by using a radio-TLC scanner.
Lab note: anything with Formation of copper sulfide (^64CuS) over time at or over 10 counts as met; the rest go in not met.

C1C[N]2CC[N]3CC[N]4CC[N]1[64Cu]243 [Example 1, ^64Cu-labeled cyclen]	met
C1COCCNCCOCCN1.[64Cu+2]	met
C1C[N]2CCC[N]3CCC[N](C1)[64Cu]23	met
[64Cu+2].c1ccc2c(CN3CCNCCNCCNCC3)c3ccccc3cc2c1	met
C1C[N]2CC[N]3CC[N]4CC[N](C1)[64Cu]234 [Example 16, ^64Cu-labeled cyclam]	not met

Now look at this entry.
Qu. Does the reported Formation of copper sulfide (^64CuS) over time for C1C[N]2CC[N]3CC[N]1[64Cu]23 [Example 20, ^64Cu-labeled TACN] fall at or above the 10 mark?
Ans. not met
